Could you please report measured IC50 for the items listed next?
test system: SNU-16; experiment: cells; conditions: read-out: Re IC50; SNU-16; 72 hours
Non-standard residues stand in square brackets, D forms with d. Residues, ends and D or L forms follow the SMILES beside them. *: point of attachment. Dolaproine = CO[C@@H]([C@@H]1CCCN1)[C@@H](C)C(=O)O; Dil = CC[C@H](C)[C@H](NC)[C@@H](CC(=O)O)OC; X1 = C[C@@H](N*)[C@@H](O)c1ccccc1; NMeV = CN[C@H](C(=O)O)C(C)C
# number only, unit nM dropped from output

compound COc1cc2cc(c1Cl)N(C)C(=O)C[C@H](OC(=O)[C@H](C)N(C)C(=O)CCSSC)[C@]1(C)O[C@H]1[C@H](C)[C@@H]1C[C@@](O)(NC(=O)O1)[C@H](OC)/C=C/C=C(\C)C2 [DM1-Sme] , IC50 observed: 0.77

compound CC[C@H](C)[C@@H]([C@@H](CC(=O)N1CCC[C@H]1[C@H](OC)[C@@H](C)C(=O)N[C@H](C)[C@@H](O)c1ccccc1)OC)N(C)C(=O)[C@@H](NC(=O)[C@@H](NC)C(C)C)C(C)C [MMAE, monomethyl auristatin E] (H-[NMeV]V[Dil][Dolaproine]-X1) , IC50 observed: 0.18

---

tested on: NCI-H1975; assay: cells; details: read-out: Re IC50; NCI-H1975; 72 hours
Non-standard residues stand in square brackets, D forms with d. Residues, ends and D or L forms follow the SMILES beside them. *: point of attachment. Dolaproine = CO[C@@H]([C@@H]1CCCN1)[C@@H](C)C(=O)O; Dil = CC[C@H](C)[C@H](NC)[C@@H](CC(=O)O)OC; X1 = C[C@@H](N*)[C@@H](O)c1ccccc1; NMeV = CN[C@H](C(=O)O)C(C)C
Could you please report measured pIC50 for the items listed next?
Worth noting: pIC50 values are minus log10 of concentrations stated in mol/L.

compound CC[C@H](C)[C@@H]([C@@H](CC(=O)N1CCC[C@H]1[C@H](OC)[C@@H](C)C(=O)N[C@H](C)[C@@H](O)c1ccccc1)OC)N(C)C(=O)[C@@H](NC(=O)[C@@H](NC)C(C)C)C(C)C [MMAE, monomethyl auristatin E] (H-[NMeV]V[Dil][Dolaproine]-X1) , pIC50 observed: 9.42

compound COc1cc2cc(c1Cl)N(C)C(=O)C[C@H](OC(=O)[C@H](C)N(C)C(=O)CCSSC)[C@]1(C)O[C@H]1[C@H](C)[C@@H]1C[C@@](O)(NC(=O)O1)[C@H](OC)/C=C/C=C(\C)C2 [DM1-Sme] , pIC50 observed: 8.82

---

tested on: HT1080; test: cells; conditions: Homo sapiens, HT-1080, 72 h, read-out: Re IC50
Endpoint: IC50
# include the unit after the value

molecule CCc1c2c(nc3ccc(O)cc13)-c1cc3c(c(=O)n1C2)COC(=O)[C@]3(O)CC [SN38] , IC50 observed: 1.35 nM

---

System: NCI-H292
Assay: cells
Conditions: Homo sapiens, NCI-H292, 72 h, read-out: Re IC50
Excerpt: Details of the initial cell plating procedure are described in Table 3. Data Details for Tables 5 and 6. Inhibition %=(Max−Sample value)/(Max−Min)*100. The IC50 curves were generated by 4 Parameter Logistic Model—Sigmoidal Dose-Response Model as follows: Y=Bottom+(Top−Bottom)/(1+10^((log EC50-X)*HillSlope)).
Endpoint: IC50 (nM)
# number only, unit nM dropped from output

molecule CCc1c2c(nc3ccc(O)cc13)-c1cc3c(c(=O)n1C2)COC(=O)[C@]3(O)CC , IC50 observed: 3.48
